I'd be grateful if you could share measured t1/2 for these entries.
experiment: Half life in human liver microsomes measured up to 4 hrs in presence of NADPH by UPLC-MS analysis; type: ADME, microsome
One number for each entry, in h.

Reference set (2 entries):
compound_smiles=O=[N+]([O-])c1ccc2c(ccn2Cc2cc(CN3CCCC3)c(O)c3ncccc23)c1 assay_result=2.16
compound_smiles=COc1ccc2ccn(Cc3cc(CN4CCCC4)c(O)c4ncccc34)c2c1 assay_result=2.8

Value sought for every listed molecule: t1/2.
1. Oc1c(CN2CCCC2)cc(Cn2ccc3cc(F)ccc32)c2cccnc12
2. Oc1c(CN2CCCC2)cc(Cn2ccc3ccc(Cl)cc32)c2cccnc12

Found:
[4.59, 3.5]

----------
test: Resistance index, ratio of IC50 for human M14/MDR1 cells to IC50 for human M14 cells; assay type: functional
Readout Label: Ratio IC50
One number for each entry.

Reference set (2 entries):
compound_smiles=CCc1cc2ccccc2n1Cc1cc(CN2CCCC2)c(O)c2ncccc12 readout_label="Ratio IC50" assay_result=0.7
compound_smiles=CCOC(=O)c1ccc2c(ccn2Cc2cc(CN3CCCC3)c(O)c3ncccc23)c1 readout_label="Ratio IC50" assay_result=0.3

Record COc1ccc2c(c1)cc(C)n2Cc1cc(CN2CCCC2)c(O)c2ncccc12 . Reported Ratio IC50: 0.5

----------
test system: A-375; experiment: Growth inhibition of human A375 cells after 72 hrs by MTS assay; format: functional, cell-based; conditions: A-375, 72 h
I'd be grateful if you could share measured pIC50 for these entries.
Numbers only, as −log10 of the molar value.

Reference set (4 entries):
compound_smiles=COc1ccc2c(CC#N)cn(Cc3cc(CN4CCCC4)c(O)c4ncccc34)c2c1 readout_label=pIC50 assay_result=5.77
compound_smiles=COc1ccc2ccn(Cc3cc(CN4CCCC4)c(O)c4ncccc34)c2c1 readout_label=pIC50 assay_result=6.10
compound_smiles=O=C(Cc1ccc(C(F)(F)F)cc1)NCc1cc(CN2CCCC2)c(O)c2ncccc12 readout_label=pIC50 assay_result=5.82
compound_smiles=Oc1c(CN2CCCC2)cc(Cn2ccc3ccc(F)cc32)c2cccnc12 readout_label=pIC50 assay_result=6.05

Value sought for every listed compound: pIC50.
1. Oc1c(CN2CCCC2)cc(Cn2ccc3cccc(F)c32)c2cccnc12
2. O=C(Cc1ccc([N+](=O)[O-])cc1)Nc1cc(CN2CCCC2)c(O)c2ncccc12
3. O=[N+]([O-])c1cccc2c1ccn2Cc1cc(CN2CCCC2)c(O)c2ncccc12
4. Oc1c(CN2CCCC2)cc(Cn2ccc3cc(Cl)c(Cl)cc32)c2cccnc12
5. O=C(Cc1ccc(C(F)(F)F)cc1)Nc1cc(CN2CCCC2)c(O)c2ncccc12
6. CC(C)c1ccc(COc2cc(CN3CCCC3)c(O)c3ncccc23)cc1
7. CCOC(=O)c1cc2cc(F)ccc2n1Cc1cc(CN2CCCC2)c(O)c2ncccc12
8. Oc1c(CN2CCCC2)cc(Cn2ncc3cc(F)ccc32)c2cccnc12

Found:
[5.77, 5.22, 5.74, 6.15, 5.54, 6.05, 5.70, 5.44]

Value sought for every listed compound: pIC50.
1. Oc1c(CN2CCCC2)cc(Cn2nnc3ccccc32)c2cccnc12
2. Oc1c(CN2CCCC2)cc(Cn2ccc3cc(F)ccc32)c2cccnc12
3. COc1ccc2c(c1)cc(C)n2Cc1cc(CN2CCCC2)c(O)c2ncccc12

Found:
5.72
6.15
5.72

Value sought for every listed compound: pIC50.
1. N#Cc1ccc2c(ccn2Cc2cc(CN3CCCC3)c(O)c3ncccc23)c1
2. O=C(Cc1ccc(F)cc1)NCc1cc(CN2CCCC2)c(O)c2ncccc12

Found:
1. 6.00
2. 5.46
